Target: T1, human TREM2 (human, UniProt Q9NZC2 19-174, limits assumed)
T1 sequence: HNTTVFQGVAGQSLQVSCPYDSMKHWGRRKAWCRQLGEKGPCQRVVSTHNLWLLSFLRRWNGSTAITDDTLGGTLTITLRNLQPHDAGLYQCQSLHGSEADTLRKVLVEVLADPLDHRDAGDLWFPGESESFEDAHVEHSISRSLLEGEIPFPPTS
Assay: yeast-displayed Fab FACS, 2nd screen 10 nM
property_label: binding signal fold over 6E7 parental

Recorded binding signal fold over 6E7 parental, per entry:
QUERY: What does the record list as binding signal fold over 6E7 parental for V65 (Fab, V domains shown) VH: EVQLVQSGAEVKKPGESLKISCKGSGYSFTSYWIAWVRQMPGKGLEWMGIIYPGDSDTRYSPSFQGQVTISADKSISTAYLQWSSLKASDTAMYFCARSRTFYYDSSDYFDYWGQGTLVTVSS VL: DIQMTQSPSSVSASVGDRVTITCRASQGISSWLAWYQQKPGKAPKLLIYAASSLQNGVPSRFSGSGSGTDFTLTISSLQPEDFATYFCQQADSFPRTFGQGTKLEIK ?
RESULT: 2.75 fold

QUERY: What does the record list as binding signal fold over 6E7 parental for V86 (Fab, V domains shown) VH: EVQLVQSGAEVKKPGESLKISCKGSGYSFGSYWLAWVRQMPGKGLEWMGIIYPGDSDTRYSPSFEGQVTISADKSISTAYLQWSSLKASDTAMYFCARSRTFYYDSSDYFDYWGQGTLVTVSS VL: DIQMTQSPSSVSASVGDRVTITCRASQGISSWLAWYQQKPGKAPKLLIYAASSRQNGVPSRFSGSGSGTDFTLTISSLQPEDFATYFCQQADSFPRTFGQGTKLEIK ?
RESULT: 5.02 fold

We now examine a further binder.
QUERY: What does the record list as binding signal fold over 6E7 parental for V52 (Fab, V domains shown) VH: EVQLVQSGAEVKKPGESLKISCKGSGYSFESYWIAWVRQMPGKGLEWMGIIYPGDSDTRYSPSFQGQVTISADKSISTAYLQWSSLKASDTAMYFCARGRTFYYDSSDYFDYWGQGTLVTVSS VL: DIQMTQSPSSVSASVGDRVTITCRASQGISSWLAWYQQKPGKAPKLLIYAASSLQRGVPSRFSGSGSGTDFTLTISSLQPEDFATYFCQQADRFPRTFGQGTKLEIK ?
RESULT: 3.09 fold
